Value source: patent US20230227466A1

Tested on: PANC-1 pancreatic cancer cell line (KRAS G12D)
assayOverview: Cell proliferation assay (CellTiter 96 Aqueous One)
Format: cell-based
conditions: Homo sapiens; PANC-1, 2-4 days, 10% FBS
Method: Cell lines: Human tumor-derived cell lines were purchased from American Type Culture Collection. […] Assay: At the end of the incubation period, cell viability was measured using the CellTiter 96® Aqueous One Solution Cell Proliferation Assay according to manufacturer specifications (Promega, Madison, Wis.). The percentage of small molecules inhibition of cellular proliferation was calculated from raw data.
Entries annotated with measured IC50
readoutType: IC50

In [3]: df
Out[3]:
                                   molecule                                    target  readouttype   endpointvalue
0  COCCn1c(-c2nc(O)c3scc(-c4ccccn4)c3n2)nc2ccccc21  PANC-1 pancreatic cancer cell line (KRAS G12D)         IC50        < 0.4 µM
1  CO[C@@H]1CC[C@H](Nc2nc(-c3nccn3C)nc3sc(-c4ccn(C(C)C)n4)c(-c4ccccc4)c23)C1  PANC-1 pancreatic cancer cell line (KRAS G12D)         IC50        < 0.4 µM
2  COC[C@@H]1CC[C@@H]1CNc1nc(-c2nccn2C)nc2sc(-c3ccn(C(C)C)n3)c(C)c12 (racemic)  PANC-1 pancreatic cancer cell line (KRAS G12D)         IC50  0.4 to 0.75 µM
3  COCC1CCN(c2nc(-c3nccn3C)nc3sc(-c4ccn(C(C)C)n4)c(C)c23)C1 (racemic)  PANC-1 pancreatic cancer cell line (KRAS G12D)         IC50    0.75 to 1 µM
